Biological target: Platelet-activating factor acetylhydrolase IB subunit alpha2 (Mus musculus)
Sequence (Q61206 whole entry): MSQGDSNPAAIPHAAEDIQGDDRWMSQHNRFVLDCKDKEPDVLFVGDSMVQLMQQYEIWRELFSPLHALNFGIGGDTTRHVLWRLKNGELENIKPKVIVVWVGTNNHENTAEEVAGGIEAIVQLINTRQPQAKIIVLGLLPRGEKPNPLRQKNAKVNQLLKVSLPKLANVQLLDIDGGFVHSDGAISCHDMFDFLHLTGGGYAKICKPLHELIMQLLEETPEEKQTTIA
Assay: Competitive ABPP Assays in Proteomes with FP-alkyne
Conditions: pH 7.5
Protocol: Total protein concentrations for each fraction were adjusted to 1 mg/mL in PBS (50 μL total reaction volume). […] Reactions were vortexed, incubated for 1 h at 25 °C, and quenched with 4x SDS-PAGE loading buffer and analyzed by in-gel fluorescence scanning.
// reported pIC50 for each item listed
When answering, recall that pIC50 equals minus log10 of the concentration in mol/L, and write that number alone.

Prompt: Return the recorded pIC50 value; entry: Cc1ccc(C2CC=C(C(=O)O)C(c3cccc(Cl)c3)N2S(=O)(=O)c2ccc(C)cc2)cc1 (centres undefined)
Response: 5.09

Prompt: Find the measured pIC50 of CCc1ccc(C2CC=C(C(=O)O)C(c3cccc(Cl)c3)N2S(=O)(=O)c2ccc(C)cc2)cc1 (centres undefined) and report it.
Response: 5.03

Prompt: Quick one: give measured pIC50 for Cc1ccc(C2CC=C(C(=O)NC3CC3)C(c3ccc(C(C)(C)C)cc3)N2S(=O)(=O)c2ccc(C)cc2)cc1 (centres undefined)
Response: 5.03

Prompt: Report measured pIC50; entry is Cc1ccc(C2C(C(=O)O)=CCC(c3ccc(C(C)C)cc3)N2S(=O)(=O)c2ccc(C)cc2)cc1 (centres undefined)
Response: 5.35
